# assayed.system: T1, PSMA Fab
# T1 construct: also called Anti-PSMA Fab; 006 PSMA Fab
# test: phage ELISA; biotinylated PSMA Fab on neutravidin plate, pre-incubated with PSMA antigen as competitor, anti-M13 HRP detection
Where no end group is shown, it is not given here.
# note: boundary value 0.1 maps to Not satisfied; Phage binding ELISA signal, Anti-PSMA Fab in presence of PSMA below it maps to Satisfied

binder: VTPRCIPEWMCAGF (cysteine pairing not given here; also: fused to pIII of bacteriophage) [Phage-3442]
answer.label: Not satisfied
//
binder: TPHACVPDWMCYGF [Phage-3444]
answer.label: Satisfied
//
binder: YNMICQPQWMCSGF [Phage-3447]
answer.label: Satisfied
//
binder: VLHMCVPLWMCHGL [Phage-3435]
answer.label: Not satisfied
//
binder: EIPYCVPQWMCVAM [Phage-3434]
answer.label: Satisfied
//
binder: VKPVCKPVWMCVGF [Phage-3436]
answer.label: Not satisfied
//
binder: MPIYCVPEWMCQGL [Phage-3446]
answer.label: Satisfied
//
binder: PAQMCIPQWMCNWL [Phage-3438]
answer.label: Satisfied

Cited source for all entries: patent US20260242478A1
